# TEST DESCRIPTION: gradient 5% acetonitrile 3 min, to 50% in 2 min, to 85% in 15 min, held 3 min, 100 µL/min
# MEASUREMENT CONDITIONS: column: Zorbax Extend-C18 2.1 x 50 mm; eluents: water / acetonitrile, 0.1% formic acid
OUTCOME MEASURE: RP-LC retention time (s)

Worked examples follow.
CC(C)c1cccc(NC(=O)Cn2ncc3c(c2=O)N(C2CC2)C(=O)CS3)c1 = 812
COc1cccc(NC(=O)CN2CCC(c3nc(-c4cccs4)no3)CC2)c1 = 680

1 = O=S(=O)(NCC1CCCO1)c1cccc2cccnc12 (stereo not given)
2 = O=C(Nc1ccccc1)C1CCN(S(=O)(=O)c2cc(-c3noc(C4CC4)n3)cs2)CC1
Compare the recorded RP-LC retention time of 1 and 2 ; state which is larger. Reply briefly: the label of your chosen item. 2

A = CC(=O)N1CCc2nn(CC(=O)Nc3ccccc3Cl)c(=O)cc2C1
B = CCN1c2ccc(C)cc2C(=O)NC12CCN(C(=O)c1ccc(F)c(Cl)c1)CC2
Compare the recorded RP-LC retention time of A and B ; state which is larger. Reply briefly: the label of your chosen item. B
(B: 888 s, A: 606 s)

A = COCCn1ccc2nc(C)c(C(=O)N3CCN(c4ncccn4)CC3)cc2c1=O
B = O=C(c1ccc(-c2csc(C3CC3)n2)cc1)N1CCCCCC1
Sorting ascending by RP-LC retention time, which comes first: A or B ? Reply briefly: the label of your chosen item. A
(A: 609 s, B: 1070 s)

---

# TEST DESCRIPTION: gradient 5% acetonitrile 3 min, to 50% in 2 min, to 85% in 15 min, held 3 min, 100 µL/min
# MEASUREMENT CONDITIONS: column: Zorbax Extend-C18 2.1 x 50 mm; eluents: water / acetonitrile, 0.1% formic acid
OUTCOME MEASURE: RP-LC retention time (s)

Worked examples follow.
CCOc1ccc(-c2[nH]ncc2CNS(=O)(=O)Cc2ccc(Cl)cc2)cc1 = 861
NC(=O)c1cnn2c3c(cnc12)CCCCCC3 = 801
O=C(NCCN1CCN(C(=O)NC(c2ccccc2)c2ccccc2)CC1)c1ccsc1 = 605
O=C(c1cn2c(n1)CCCC2)N1CCN(c2ccc(Cl)cc2)CC1 = 648
COC(=O)c1sccc1NC(=O)Nc1cccn2c(C3CCC3)nnc12 = 884

I = CN1CCN(c2nc3c(c(Nc4ccccc4)n2)C(=O)CC(C)(C)C3)CC1
II = CCn1c(C(=O)NC(C)CCc2ccccc2)cc2sc(Cl)cc21 (stereo not given)
Sorting ascending by RP-LC retention time, which comes first: I or II ? Reply briefly: the label of your chosen item. I
(I: 713 s, II: 1270 s)

---

# TEST DESCRIPTION: gradient 5% acetonitrile 3 min, to 50% in 2 min, to 85% in 15 min, held 3 min, 100 µL/min
# MEASUREMENT CONDITIONS: column: Zorbax Extend-C18 2.1 x 50 mm; eluents: water / acetonitrile, 0.1% formic acid
OUTCOME MEASURE: RP-LC retention time (s)

Cc1ccccc1Cn1c(CN2CCC(C(=O)NC(C)Cc3ccco3)CC2)cc2ccccc21 (stereo not given) = 833
COc1ccc(C(C)NC(=O)Cn2c(=O)nc(-c3ccccc3)c3ccccc32)cc1OC (stereo not given) = 697
CSc1ccc(Cl)c(C(=O)Nc2cccn3c(C)nnc23)c1 = 759
COc1c(C(=O)Nc2ccc(N3CCOCC3)cc2)sc2ccc(Cl)cc12 = 1110
CCCN1C(=O)c2c(C(=O)NCCc3cccc(C)c3)ncn2CC1(C)C(=O)NC1CCCC1 (stereo not given) = 918

---

# TEST DESCRIPTION: gradient 5% acetonitrile 3 min, to 50% in 2 min, to 85% in 15 min, held 3 min, 100 µL/min
# MEASUREMENT CONDITIONS: column: Zorbax Extend-C18 2.1 x 50 mm; eluents: water / acetonitrile, 0.1% formic acid
OUTCOME MEASURE: RP-LC retention time (s)

CCc1nc2nccc(-c3cccc(OC)c3)n2n1 = 762
O=C(NCCn1nnc2cc(C(=O)N3CCCCC3)ccc21)NC1CCCC1 = 661
CCOc1ccc(/C=C/C(=O)Nc2nc(-c3ccc4c(c3)N(CC)C(=O)CO4)cs2)cc1OC = 1020
O=C(CN1CCN(Cc2ccccc2F)C1=O)N1CCN(C2CCCCC2)CC1 = 613
C=CCN1C(=O)COc2ccc(-c3nc(NC(=O)CCC4CCCCC4)sc3C)cc21 = 1220
O=C(Cn1c(=O)oc2ccc(Cl)cc21)N1CCc2ccccc21 = 898
CCN1CCN(C(=O)C2CCN(c3nc4ccc(-c5ccsc5)nc4s3)CC2)CC1 = 666
CCSc1nc2ccc(NS(=O)(=O)c3cc(C)cc(C)c3)cc2s1 = 1120
COc1nn(C)cc1C(=O)Nc1nnc(-c2csc(C)n2)o1 = 578
Cc1ccc(CC(=O)NC2CCN(c3ccccc3)C2=O)cc1 (stereo not given) = 797

1 = Cc1ccc(CNC(=O)C2CCCN(C(=O)Cc3cccc4ccccc34)C2)o1 (stereo not given)
2 = O=C(Nc1cccc(F)c1)c1c(O)c2cccnc2n(-c2ccc(F)cc2)c1=O
Compare the recorded RP-LC retention time of 1 and 2 ; state which is larger. Reply briefly: the label of your chosen item. 2
(2: 1250 s, 1: 806 s)

I = Cc1cc(C)cc(NC(=O)NCC(c2cccnc2)c2cn(C)c3ccccc23)c1 (stereo not given)
II = Cc1sc(NC(=O)Cn2c(=O)sc3ccccc32)nc1-c1ccc(Cl)cc1
Compare the recorded RP-LC retention time of I and II ; state which is larger. Reply briefly: the label of your chosen item. II

---

# TEST DESCRIPTION: gradient 5% acetonitrile 3 min, to 50% in 2 min, to 85% in 15 min, held 3 min, 100 µL/min
# MEASUREMENT CONDITIONS: column: Zorbax Extend-C18 2.1 x 50 mm; eluents: water / acetonitrile, 0.1% formic acid
OUTCOME MEASURE: RP-LC retention time (s)

Worked examples follow.
CCOc1ccccc1NC(=O)C1CCN(c2cnc(N3CCCCC3)nc2)CC1 = 928
COc1cccc(NC(=O)Cn2c(N3CCCCC3)nc(C)cc2=O)c1 = 658
COc1ccc(Cc2nnc(N)o2)cc1 = 596
O=C(NCc1ccc(F)cc1F)C1CCN(c2cnc(N3CCCC3)nc2)CC1 = 668
O=C(Cc1c[nH]c2ccccc12)N1CCC(c2nc(C3CC3)no2)C1 (stereo not given) = 764

1 = CC(Cc1ccco1)NC(=O)c1cc(-c2ccccn2)nc2ccccc12 (stereo not given)
2 = CN1CCN(CCCNC(=O)c2cc(-c3cccnc3)nc3ccc(Br)cc23)CC1
3 = O=C1COc2ccc(Cl)cc2N1Cc1nc(-c2cccc(-c3csc(C4CC4)n3)c2)no1
Rank items: key RP-LC retention time, increasing. Lab note: record answer as labels in requested order. 2, 1, 3
(2: 542 s, 1: 843 s, 3: 1300 s)

P = O=C(NCCc1ccccc1)N1CCN(CCn2c(-c3ccncc3)nc3cccnc32)CC1
Q = CCn1cc(-c2nc(C)c(C(=O)Nc3ccccc3)s2)c2cccnc21
Sorting ascending by RP-LC retention time, which comes first: P or Q ? Reply briefly: the label of your chosen item. P
(P: 593 s, Q: 965 s)

A = O=C(NCc1csc(C2CCCN(C(=O)c3ccc(F)cc3Cl)C2)n1)C1CC1 (stereo not given)
B = CC(C)Cc1csc(-c2csc(S(=O)(=O)NCc3cccs3)c2)n1
Compare the recorded RP-LC retention time of A and B ; state which is larger. Reply briefly: the label of your chosen item. B

A = COCc1c(C(=O)O)nnn1-c1ccc(OC)cc1
B = CCc1ccc(NC(=O)N2CCCC2c2nc(-c3ccccc3OC)no2)cc1 (stereo not given)
Sorting ascending by RP-LC retention time, which comes first: A or B ? Reply briefly: the label of your chosen item. A
(A: 677 s, B: 976 s)

---

# TEST DESCRIPTION: gradient 5% acetonitrile 3 min, to 50% in 2 min, to 85% in 15 min, held 3 min, 100 µL/min
# MEASUREMENT CONDITIONS: column: Zorbax Extend-C18 2.1 x 50 mm; eluents: water / acetonitrile, 0.1% formic acid
OUTCOME MEASURE: RP-LC retention time (s)

O=c1c2cc(-c3ccc4c(c3)OCO4)nn2ccn1Cc1ccccc1F = 985
CC(C)CNC(=O)CCc1nc2ccccc2n(CC(=O)NCCc2ccc(Cl)cc2)c1=O = 855
COc1ccc(Cl)cc1NC(=O)C1CC(=O)N(c2cccc(NC(C)=O)c2)C1 (centres undefined) = 740
CCOc1ccccc1NC(=O)C1(C)Oc2cccnc2NC1=O (centres undefined) = 776
O=C(c1ccc(Br)cc1)N1CC2C3CCC(O3)C2C1 (centres undefined) = 838
O=S(=O)(NCc1nnnn1-c1ccc(Cl)cc1)c1ccc2c(c1)OCCO2 = 773
O=C(NC1CCCC1)C1CC(=O)N(c2ccc3c(c2)CCN3C(=O)C2CC2)C1 (centres undefined) = 704
N#Cc1ccc(C(=O)Nc2nnc(CSc3ccccc3)o2)cc1 = 749
COc1ccc(CNC(=O)Nc2cc3c(cc2Oc2ccccc2)n(C)c(=O)n3C)cc1 = 840
